# Test system: BT-549 breast
# assay.details: NCI tumour cell line growth inhibition, 48 h
measurement.label: TGI (µM)

- substance.smiles: "O=c1nc2n(-c3ccc(Cl)cc3)c3ccc([N+](=O)[O-])cc3cc-2c(=O)[nH]1"
  value.operator: "="
  test.value: 46.2
- substance.smiles: "COc1ccc(/C=C/C(=O)/C=C/c2ccc(OC)cc2)cc1"
  value.operator: ">"
  test.value: 100
- substance.smiles: "O=C1C=C(Sc2ccccc2)c2nccc3c2c1nc1ccccc13"
  value.operator: "="
  test.value: 31.4
- substance.smiles: "Cc1ccc2c(=O)c3cccc(CC(=O)O)c3[nH]c2c1C"
  value.operator: ">"
  test.value: 100
- substance.smiles: "O=C1c2cc3c(cc2-c2c1c1ccc(Cl)cc1c(=O)n2CCCNCCO)OCO3"
  value.operator: "="
  test.value: 2.49
- substance.smiles: "Cc1c(-c2c(-c3ccc(F)o3)sc3ncnc(O[C@H](Cc4ccccc4OCc4ccnn4CC(F)(F)F)C(=O)O)c23)ccc(OCCN2CCN(C)CC2)c1Cl"
  value.operator: "="
  test.value: 5.65
- substance.smiles: "O=C1c2ccccc2C(=O)c2c(Nc3ccc4c5c(cccc35)C(=O)c3ccccc3-4)cccc21"
  value.operator: ">"
  test.value: 100
- substance.smiles: "COC(=O)c1c2c(c(C)[n+]([O-])c1C)C(=O)C=C(NCc1ccc(F)c(Cl)c1)C2=O"
  value.operator: "="
  test.value: 2.43
- substance.smiles: "Cn1c(/C=C(\\C#N)c2ccccc2)nc2c(N3CCOCC3)nc(Cl)nc21"
  value.operator: "="
  test.value: 2.07
- substance.smiles: "COc1cc(CNc2ccc3nc4n(c(=O)c3c2)CCCCC4)cc(OC)c1OC"
  value.operator: "="
  test.value: 71.6
- substance.smiles: "CC1(C)O[C@@H]2[C@@H](COC(=O)c3ccccc3)C[C@@H](C#N)[C@@H]2O1"
  value.operator: ">"
  test.value: 100
- substance.smiles: "COc1ccc(/C=C\\c2cc(OC)c(OC)c(OC)c2)cc1OC(=O)c1cccc(Cn2cc(CCOC(=O)[C@H](N)Cc3cn(C)c4ccccc34)nn2)c1"
  value.operator: "="
  test.value: 13.3
- substance.smiles: "CCOC(=O)N1CCc2cc(OC)c(OC)c3c2c1cc1cc(OC)c(OC)cc13"
  value.operator: "="
  test.value: 3.65
- substance.smiles: "NNC(=O)c1ccccc1NC(=O)/C(=C/c1ccccc1O)NC(=O)c1ccccc1"
  value.operator: ">"
  test.value: 100
- substance.smiles: "COc1ccc(C(=O)Cn2c(C(=O)/C=C/c3ccco3)nc3ccccc32)cc1"
  value.operator: ">"
  test.value: 100
- substance.smiles: "C=CC[N+]12CN3CN(CN(C3)C1)C2"
  value.operator: "="
  test.value: 61.3
- substance.smiles: "COc1cc(C)c2c(=O)c3ccccc3n(C)c2c1"
  value.operator: "="
  test.value: 52.7
- substance.smiles: "Oc1ccccc1/C=N/Nc1nc(N/N=C/c2ccccc2O)nc(N/N=C/c2ccccc2O)n1"
  value.operator: ">"
  test.value: 100
- substance.smiles: "Nc1nc(Cl)c2ncn(Cc3ccc(CCl)cc3)c2n1"
  value.operator: "="
  test.value: 24.5
- substance.smiles: "CC(C)=NN/C(=N\\S(=O)(=O)c1ccc(C)cc1)Nc1ccc(Cl)cc1"
  value.operator: ">"
  test.value: 100

Where do the numbers come from? From PubChem BioAssay (NCI).
